B1: Far upstream element-binding protein 2, residues 142 to 214; numbered along this chain, Q92945 (parent)
chain: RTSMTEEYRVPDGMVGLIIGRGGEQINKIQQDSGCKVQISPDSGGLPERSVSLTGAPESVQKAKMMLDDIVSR

# Variants of: B1
# MEASUREMENT NOTES: abundance fitness (aPCA) (normalised: wild type 0, dead -1); higher = more abundant; growth selection in yeast, the domain comes from the species named
# SETUP CONDITIONS: Homo sapiens
Measured abundance fitness of individual entries

{"columns": ["MUTATION LIST", "abundance fitness"],
 "data": [
  ["G45Q", -0.1],
  ["I70K", -0.395],
  ["V60M", -0.265],
  ["M66V", -0.456],
  ["G45S", -0.113],
  ["D32F", -0.364],
  ["I29S", -0.819],
  ["L67M", -0.055],
  ["A63H", -0.528],
  ["C35W", -1.19],
  ["S43I", -0.098],
  ["R73L", -0.004],
  ["V51Y", -0.5],
  ["G22E", -0.071],
  ["A56C", 0.088],
  ["S72H", 0.019],
  ["G22V", -0.312],
  ["G55N", -0.922],
  ["S40A", 0.027],
  ["G44E", 0.008],
  ["C35A", -0.029],
  ["V60R", -0.016]
]}

Origin of measurements: the Human Domainome abundance scans (Beltran et al. 2025)
